The measured values listed here are drawn from patent US20220298138A1.

# testedTarget: Human FXIa (Homo sapiens)
# Construct: Human FXIa (Enzyme Research Laboratories) was incubated; purchased Enzyme Research Laboratories
# Sequence (P03951 388-625 limits assumed): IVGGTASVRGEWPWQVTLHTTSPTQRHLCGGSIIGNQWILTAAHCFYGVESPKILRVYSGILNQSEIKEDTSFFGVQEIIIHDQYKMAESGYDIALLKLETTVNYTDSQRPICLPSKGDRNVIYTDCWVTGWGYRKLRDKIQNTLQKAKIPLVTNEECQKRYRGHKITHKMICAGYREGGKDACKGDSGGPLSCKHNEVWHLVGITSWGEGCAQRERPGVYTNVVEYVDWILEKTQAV
# Sequence (P03951 19-387 partner limits assumed): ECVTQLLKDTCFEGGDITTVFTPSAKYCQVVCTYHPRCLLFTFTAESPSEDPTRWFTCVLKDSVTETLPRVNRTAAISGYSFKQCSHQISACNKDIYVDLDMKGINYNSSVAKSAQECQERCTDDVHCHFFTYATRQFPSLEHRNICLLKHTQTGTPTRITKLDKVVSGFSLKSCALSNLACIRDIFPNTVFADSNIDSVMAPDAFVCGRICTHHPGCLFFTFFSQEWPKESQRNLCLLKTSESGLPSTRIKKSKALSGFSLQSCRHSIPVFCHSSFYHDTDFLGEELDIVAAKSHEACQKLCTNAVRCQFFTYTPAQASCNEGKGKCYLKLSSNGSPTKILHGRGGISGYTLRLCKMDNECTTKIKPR
# assayName: FXIa inhibitory activity in vitro (fluorogenic substrate Z-Gly-Pro-Arg-AFC), selectivity
# Type: biochemical
# measurementParameters: category scale, 25° C.
pIC50: −log10 of the molar value.
The reader will find reported pIC50 values listed item by item below.

Any idea what its pIC50 is? The compound is CNC(C)(C)C(=O)N1C[C@H](c2ccccc2)C[C@H]1C(=O)NCc1ccc2c(N)nccc2c1
4.40 to 5.00

----------
This listing pairs molecules with measured IC50.
# testedTarget: Human Factor XIIa (Homo sapiens, UniProt P00748)
# Construct: purchased Enzyme Research Laboratories
# Sequence (P00748 373-615 limits assumed): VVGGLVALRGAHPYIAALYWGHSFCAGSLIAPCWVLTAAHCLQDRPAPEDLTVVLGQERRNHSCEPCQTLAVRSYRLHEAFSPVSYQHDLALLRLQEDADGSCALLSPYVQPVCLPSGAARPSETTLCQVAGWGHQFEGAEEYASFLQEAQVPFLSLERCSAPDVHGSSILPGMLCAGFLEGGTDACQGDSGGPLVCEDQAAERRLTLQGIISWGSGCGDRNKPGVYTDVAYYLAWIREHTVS
# assayName: Factor XIIa inhibitory activity in vitro (fluorogenic substrate H-DPro-Phe-Arg-AFC)
# Type: biochemical
# measurementParameters: 25° C., class symbols, read-out: Human FXIIa IC50

Fill in the blank: the reported IC50 of C[C@H](NC(=O)[C@H](N)CCCCN1CCCCC1)C(=O)NCc1ccc2c(N)nccc2c1 [Example 6.14] is ____.
1 to 3 µM

What value of IC50 has been recorded for this entry: CN1CCC(C(=O)N[C@@H](Cc2ccc(F)c(F)c2)C(=O)NCc2ccc3c(N)nccc3c2)CC1 [Example 0.43]
3 to 10 µM

Entry CC(C)N1CCC[C@@H]1C(=O)N[C@@H](Cc1ccc(F)c(F)c1)C(=O)NCc1ccc2[nH]ncc2c1 [Example 44.05] has what IC50?
10 to 40 µM

For Nc1nccc2cc(CNC(=O)[C@H](Cc3ccc(F)c(F)c3)NC(=O)CN3CCCCC3)ccc12 [Example 3.06] , what is its reported IC50?
1 to 3 µM
